molecular target: M1 muscarinic receptor (Homo sapiens); construct: expressed in transfected cells; host or cells: CHO (M1-CHO); assay: Functional mobilization of intracellular calcium (FLIPR), M1-CHO cells; type: cell-based; details: 100% efficacy = maximum response obtained with the Carbachol control
Catalogue of Emax readings, one per entry.

{"COMPOUND": "FC(F)(F)Oc1ccccc1C1CCN([C@H]2C[C@H]3CC[C@H]2C3)CC1", "Emax": "25 to 100%"}

Dear colleague, I am looking for the recorded Emax of the following compound: CCOC(=O)N1CCC(CN2CCC(OC)(c3cc(Cl)ccc3OC)CC2)CC1
25 to 100%

Item: COc1ccc(Cl)cc1C1(OC)CCN(C2CCCCCC2)CC1
25 to 100%

Item: COc1ccccc1C1CCN(C2CCC3CCCCC3C2)CC1 (centres unmarked)
25 to 100%

Item: COc1ccc(Cl)c(C2CCN(C3C[C@H]4CC[C@H]3C4)CC2)c1 (some centres unmarked)
< 25%

Item: CCOC(=O)N1CCC(CN2CCC(c3cc(-c4ccc(C#N)cc4)ccc3OC)CC2)CC1
25 to 100%

Item: COc1ccc(-c2ccc(C(=O)N(C)C)cc2)cc1C1CCN([C@H]2C[C@H]3CC[C@H]2C3)CC1
< 25%

Item: CCOC(=O)N1CCC(CN2CCC(c3cccc(C(F)(F)F)c3C)CC2)CC1
25 to 100%

---

Target: M1 muscarinic receptor (Homo sapiens)
Construct: expressed in transfected cells; host or cells: CHO (M1-CHO)
Sequence (P11229 1-460): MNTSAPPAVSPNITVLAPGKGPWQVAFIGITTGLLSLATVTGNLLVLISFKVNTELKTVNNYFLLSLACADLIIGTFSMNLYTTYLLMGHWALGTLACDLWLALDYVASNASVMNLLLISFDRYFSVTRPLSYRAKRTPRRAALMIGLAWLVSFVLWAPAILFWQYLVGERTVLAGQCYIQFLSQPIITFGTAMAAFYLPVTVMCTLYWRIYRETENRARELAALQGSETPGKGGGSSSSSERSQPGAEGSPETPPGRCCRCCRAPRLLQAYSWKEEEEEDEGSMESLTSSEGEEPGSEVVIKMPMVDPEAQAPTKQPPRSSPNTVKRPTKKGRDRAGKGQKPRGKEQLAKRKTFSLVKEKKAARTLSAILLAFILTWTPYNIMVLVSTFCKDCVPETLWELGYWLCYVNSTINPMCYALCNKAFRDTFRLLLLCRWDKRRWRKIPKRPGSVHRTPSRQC
Experiment: Functional mobilization of intracellular calcium (FLIPR), M1-CHO cells
Type: cell-based
Settings: 100% efficacy = maximum response obtained with the Carbachol control
REPORTED PROPERTY: Emax

Known results for molecules:
{"MOLECULE": "CCOC(=O)N1CCC(N2CCC(c3cc(-c4ccc(S(C)(=O)=O)cc4)ccc3OC)CC2)CC1 [Compound 43]", "Emax": "> 100%"}
{"MOLECULE": "COc1ccc(-c2ccccc2C#N)cc1C1CCN([C@@H]2C[C@H]3CC[C@H]2C3)CC1 [Compound 92]", "Emax": "< 25%"}
{"MOLECULE": "Cc1ccc(C)c(C2CCN(C3CC4CCC3C4)CC2)c1 (stereo not shown) [Compound 341]", "Emax": "< 25%"}
{"MOLECULE": "CCC(=O)COc1ccccc1C1CCN([C@H]2C[C@H]3CC[C@H]2C3)CC1 [Compound 19]", "Emax": "25 to 100%"}
{"MOLECULE": "COc1ccc(F)cc1C1(O)CCN(CC2CCOCC2)CC1 [Compound 231]", "Emax": "< 25%"}

Dear colleague, I am looking for the recorded Emax of the following molecule: COc1ccc(-c2ccc(C(C)=O)cc2)cc1C1CCN([C@H]2C[C@H]3CC[C@H]2C3)CC1 [Compound 7]
< 25%

Item: FC(F)(F)Oc1ccccc1C1CCN(C2CCOCC2)CC1 [Compound 70]
25 to 100%

Item: COc1ccc(-c2ccc(C(C)(C)C#N)cc2)cc1C1CCN(C2CCCCC2)CC1 [Compound 105]
25 to 100%

Item: COc1ccc(Cl)cc1C1CCN(C2CC[S+]([O-])CC2)CC1 (stereo not shown) [Compound 248]
< 25%

Item: CCOC(=O)N1C2CCC1CC(N1CCC(c3ccc(F)cc3OC)CC1)C2 (stereo not shown) [Compound 179]
25 to 100%

Item: COc1ccccc1C1CCN(C2CC[C@@H](C)C2)CC1 (stereo partly shown) [Compound 210]
25 to 100%

Item: COc1ccccc1C1CC2CCC(C1)N2C1CCOCC1 (stereo not shown) [Compound 37]
< 25%

Item: Fc1ccc(-c2ccccc2C2CCN([C@H]3C[C@H]4CC[C@H]3C4)CC2)cc1 [Compound 294]
< 25%

Item: COc1ccc(F)cc1C1(F)CCN(C2CCOCC2)CC1 [Compound 314]
< 25%

Item: COc1ccc(-c2ccccc2C(N)=O)cc1C1CCN([C@H]2C[C@H]3CC[C@H]2C3)CC1 [Compound 347]
< 25%

Item: COc1ccc(-c2ccc(C(N)=O)cc2)cc1C1CCN([C@H]2C[C@H]3CC[C@H]2C3)CC1 [Compound 6]
< 25%

Item: CCOC(=O)N1C2CCC1CC(N1CCC(C#N)(c3ccccc3OC)CC1)C2 (stereo not shown) [Compound 131]
25 to 100%

Item: CCOC(=O)N1C2CCC1CC(N1CCC(c3cc(-c4ccc(C#N)cc4)ccc3OC)CC1)C2 (stereo not shown) [Compound 317]
25 to 100%

---

target: M3 muscarinic receptor (Homo sapiens, UniProt P20309); construct: expressed in transfected cells; host or cells: CHO (M3-CHO); test: Functional mobilization of intracellular calcium (FLIPR), M3-CHO cells; type: cell-based; conditions: 100% efficacy = maximum response obtained with the Carbachol control
Sequence (P20309 whole entry): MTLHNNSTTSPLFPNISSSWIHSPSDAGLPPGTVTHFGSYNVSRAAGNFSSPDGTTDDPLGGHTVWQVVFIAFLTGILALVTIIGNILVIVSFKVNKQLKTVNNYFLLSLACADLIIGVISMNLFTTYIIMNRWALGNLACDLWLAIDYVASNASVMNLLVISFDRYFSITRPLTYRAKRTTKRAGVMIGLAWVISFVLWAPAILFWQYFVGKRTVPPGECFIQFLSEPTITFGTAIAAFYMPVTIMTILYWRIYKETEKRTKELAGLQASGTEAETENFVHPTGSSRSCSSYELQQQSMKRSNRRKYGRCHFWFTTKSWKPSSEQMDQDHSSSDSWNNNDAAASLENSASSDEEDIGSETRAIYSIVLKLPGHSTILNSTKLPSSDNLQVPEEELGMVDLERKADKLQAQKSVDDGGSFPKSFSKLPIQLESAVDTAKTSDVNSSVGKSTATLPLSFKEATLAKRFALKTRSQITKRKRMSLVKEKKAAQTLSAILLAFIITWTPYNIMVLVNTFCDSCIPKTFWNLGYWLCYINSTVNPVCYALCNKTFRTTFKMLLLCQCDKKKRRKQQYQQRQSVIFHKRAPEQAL
REPORTED PROPERTY: Emax

Known results for molecules:
{"MOLECULE": "CNC(=O)c1ccc(-c2ccc(OC)c(C3CCN(C4CC5CCC(C5)C4)CC3)c2)cc1Cl (stereo not shown) [Compound 100]", "REPORTED PROPERTY": "Emax", "RESULT": "< 25%"}
{"MOLECULE": "COc1ccc(-c2ccc(C(=O)N(C)C)cc2)cc1C1CCN([C@H]2C[C@H]3CC[C@H]2C3)CC1 [Compound 360]", "REPORTED PROPERTY": "Emax", "RESULT": "< 25%"}
{"MOLECULE": "COc1ccc(-c2ccc(F)cc2)cc1C1CCN([C@H]2C[C@H]3CC[C@H]2C3)CC1 [Compound 267]", "REPORTED PROPERTY": "Emax", "RESULT": "< 25%"}
{"MOLECULE": "CCOC(=O)N1CCC(CN2CCC(c3cc(OC)cc(F)c3F)CC2)CC1 [Compound 177]", "REPORTED PROPERTY": "Emax", "RESULT": "< 25%"}

Dear colleague, I am looking for the recorded Emax of the following molecule: COc1ccc(F)cc1C1CCN(CC2CC3CCC2CC3)CC1 (stereo not shown) [Compound 104]
< 25%

Item: COc1ccc(F)cc1C1(O)CCN(C[C@H]2C[C@H]3C=C[C@H]2C3)CC1 [Compound 340]
< 25%

Item: COc1ccc(-c2ccccc2C)cc1C1CCN([C@@H]2C[C@H]3CC[C@H]2C3)CC1 [Compound 67]
< 25%

---

Catalogue of Emax readings, one per entry.
molecular target: M4 muscarinic receptor (Homo sapiens); construct: expressed in transfected cells; host or cells: CHO (M4-CHO); assay: Functional mobilization of intracellular calcium (FLIPR), M4-CHO cells; format: cell-based; conditions: 100% efficacy is the maximum response obtained with the Carbachol control
Sequence (P08173 whole entry): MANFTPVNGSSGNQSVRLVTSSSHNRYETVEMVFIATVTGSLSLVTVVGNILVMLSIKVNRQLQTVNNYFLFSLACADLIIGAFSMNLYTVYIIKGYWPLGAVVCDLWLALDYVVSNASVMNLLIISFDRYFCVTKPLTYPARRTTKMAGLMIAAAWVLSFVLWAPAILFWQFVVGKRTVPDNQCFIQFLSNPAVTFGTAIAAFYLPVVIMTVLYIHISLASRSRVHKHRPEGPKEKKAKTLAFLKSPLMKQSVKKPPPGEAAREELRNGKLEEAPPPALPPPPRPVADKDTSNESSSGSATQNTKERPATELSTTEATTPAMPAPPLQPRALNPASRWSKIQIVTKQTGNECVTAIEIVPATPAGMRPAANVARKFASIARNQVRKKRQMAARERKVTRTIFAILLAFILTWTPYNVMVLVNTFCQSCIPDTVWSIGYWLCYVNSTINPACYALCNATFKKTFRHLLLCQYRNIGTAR

{"COMPOUND": "COc1ccccc1C(=O)COc1ccccc1C1CCN([C@H]2C[C@H]3CC[C@H]2C3)CC1", "TESTED TARGET": "M4 muscarinic receptor (Homo sapiens)", "Emax": "25 to 100%"}

Dear colleague, I am looking for the recorded Emax of the following compound: COc1ccc(-c2ccc(CC#N)cc2)cc1C1CCN(C2CCCCC2)CC1
25 to 100%

Item: COc1ccccc1C1CCN(C2CCC(OC(=O)c3ccccc3)CC2)CC1 (centres unmarked)
25 to 100%

Item: COc1ccc(-c2ccc(NC(C)=O)cc2)cc1C1CCN([C@H]2C[C@H]3CC[C@H]2C3)CC1
< 25%

Item: COc1ccccc1C1(C#N)CCN(C2CCOCC2)CC1
< 25%

---

Catalogue of Emax readings, one per entry.
target: M2 muscarinic receptor (Homo sapiens, UniProt P08172); construct: expressed in transfected cells; host or cells: CHO (M2-CHO); experiment: Functional mobilization of intracellular calcium (FLIPR), M2-CHO cells; assay type: cell-based; settings: 100% efficacy = maximum response obtained with the Carbachol control
Sequence (P08172 whole entry): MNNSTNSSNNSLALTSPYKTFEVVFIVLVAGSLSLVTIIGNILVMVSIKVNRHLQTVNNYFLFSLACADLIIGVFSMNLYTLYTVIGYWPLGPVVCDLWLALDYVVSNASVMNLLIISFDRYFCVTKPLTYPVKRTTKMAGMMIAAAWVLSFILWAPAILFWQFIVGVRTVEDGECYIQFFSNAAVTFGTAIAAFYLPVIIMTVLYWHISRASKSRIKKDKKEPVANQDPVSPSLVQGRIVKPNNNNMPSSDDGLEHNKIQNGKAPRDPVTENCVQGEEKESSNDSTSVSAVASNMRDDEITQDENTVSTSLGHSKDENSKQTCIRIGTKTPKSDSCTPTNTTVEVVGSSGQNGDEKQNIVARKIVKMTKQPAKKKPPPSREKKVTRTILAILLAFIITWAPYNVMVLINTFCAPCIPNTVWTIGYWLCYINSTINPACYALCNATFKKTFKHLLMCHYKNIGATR

Known results for compounds:
{"COMPOUND": "COc1ccccc1C1CCN(C2CC3CC(C)CC(C3)C2)CC1 (centres unmarked) [Compound 112]", "RESULT": "< 25%"}
{"COMPOUND": "Cc1ccccc1C1CCN(C2CC3CCC2C3)CC1 (centres unmarked) [Compound 180]", "RESULT": "< 25%"}
{"COMPOUND": "COc1ccc(C(=O)COc2ccccc2C2CCN([C@H]3C[C@H]4CC[C@H]3C4)CC2)cc1 [Compound 57]", "RESULT": "25 to 100%"}
{"COMPOUND": "Cc1c(C2CCN(C3C[C@H]4CC[C@H]3C4)CC2)cccc1C(F)(F)F (some centres unmarked) [Compound 149]", "RESULT": "< 25%"}
{"COMPOUND": "COc1ccc(-c2ccc(C(=O)N3CCOCC3)cc2)cc1C1CCN([C@H]2C[C@H]3CC[C@H]2C3)CC1 [Compound 8]", "RESULT": "< 25%"}

Dear colleague, I am looking for the recorded Emax of the following compound: COc1ccc(Cl)cc1C1(OC)CCN(C2CC3CCC(C3)C2)CC1 (centres unmarked) [Compound 288]
< 25%

Item: CC(=O)COc1ccccc1C1CCN(C2CC3CC[C@H]2C3)CC1 (stereo in doubt) [Compound 53]
25 to 100%

Item: COc1ccc(Cl)cc1C1(O)CCN(C2CC3CCC2C3)CC1 (centres unmarked) [Compound 63]
< 25%
